Reference source: patent US20250340623A1

# Target or system: monomeric alpha-synuclein, P37840
# Assay name: SPR, captured mAb
# Condition label: remark: other sources report otherwise
Measured kon, listed per entry for reference.
Could you give the number and then its unit, please?

{"columns": ["Binder", "kon"],
 "data": [
  ["ACI-7088-4301H3-Ab2 (antibody, V domains shown) VH: EVQLQQSGPELVKPGASVKISCKASGYTFADYFMNWVKQSHGKSLEWIGDINPNNGGTTYNQKFKGKATLTVDKSSNTAYMELRSLTSEDSAVYYCARGRNYAMDYWGQGTSVTVSS VL: DIVMSQSPSSLAVSAGEKVTMSCKSSQSLLNSRTRKNYLAWYQQKPGQSPKLLIYSASTRESGVPDRFTGSGFGTDFTLTISSVQAEDLAVYYCKQSYDLWTFGGGTKLEIK", "27600 M⁻¹ s⁻¹"],
  ["ACI-7079-2501B11-Ab3 (antibody, V domains shown) VH: QVQLQQSGPELVKPGASVKISCKASGYAFSSFWMNWMKQRPGKGLEWIGRIYPGDGDAHYNGEFKGRATLTADKSSSTAYMQLSSLTSEDSAVYFCARKGDFYGSNYDYWGQGTTLTVSS VL: QAVVTQESALTTSPGETVTLTCRSSTGAVTTSNYANWVQEKPDHLFTGLIGGTNNRAPGVPARFSGSLIGDKAALTITGAQTEDEAIYFCALWYSNHLVFGGGTRLTVL", "141000 M⁻¹ s⁻¹"],
  ["ACI-7088-4305H7-Ab1 (antibody, V domains shown) VH: EVQLQQSGAELVRPGASVKLSCTASGFNIKDDYMHWVKQRPEQGLEWIGWIDPENGDTEYASKFQGKATMIADTSSNTAYLQLSSLTSEDTAVYYCKTWGTTQALFPYWGQGTLVTVSS VL: DIVMTQSQKFMSTSVGDRVSITCKASQNVGTAVGWYQQKAGQSPKLLIHSASNRYTGVPDRFTGSGSGTDFTLTINNMQSEDLADYFCQQYRSYPLTFGAGTKLELK", "2.73e+07 M⁻¹ s⁻¹"],
  ["ACI-7088-4303H6-Ab1 (antibody, V domains shown) VH: EVQLQQSGAELVRPGASVKLSCTASGFNIQDDYMHWVKQRPEQGLEWIGWIDPENGDTEYASKFQGKATLTADTSSNTAYLQLSRLTSEDTAVYYCTTAGSGVQLFDYWGQGTTLTVSA VL: DILMTQSQKFMSTSVGDRVSVTCKASQNVGTNVAWYQQKPGQSPKPLISSASSRYSGVPDRFTGSGSGTDFTLTISNVQSEDLADYFCQQYNRYPLTFGAGTKLELK", "34400 M⁻¹ s⁻¹"]
]}

--- query ---
Q: # get_value(readout='kon', item= ACI-7079-2506E2-Ab2 (antibody, V domains shown) VH: QVQLQQSGPELVRPGASVKISCKASGYAFSNSWMNWVKQRPGKGLEWIGRIFPGDGDTYYDGKFKGKVKLTTDKFSNTAYMQLRSLTSEDSAVYFCARWGGTNDEWFAHWGQGTLVTVSV VL: DIVLTQSPASLTVSLGQRATISCRASQSVSTSRNSYMHWYQQKPRQPPKLLIKYASNLESGVPARFSGSGSGADFTLNIHPVEEEDTATYYCQHSWDIPLTFGTGTKLELS )
Ans: 80900 M⁻¹ s⁻¹
